Listed molecules paired with reported melting point
Measurement Label: melting point

In [3]: df
Out[3]:
                                    molecule           assay_value
 0  C[C@]1(CN2CCN(C(=O)OCC=Cc3cccc(C(F)(F)F)c3)CC2)Cn2cc([N+](=O)[O-])nc2O1.O=C(O)/C=C\C(=O)O         136 to 138 °C
 1  CC1(CN2CCC(Cc3ccc(Cl)cc3)CC2)Cn2cc([N+](=O)[O-])nc2O1 (stereo not drawn)       109 to 110.5 °C
 2  C[C@@]1(CN2CCN(Cc3ccc(C(F)(F)F)cc3)CC2)Cn2cc([N+](=O)[O-])nc2O1           93 to 95 °C
 3  O=C(CN1CCC2(CC1)Cn1cc([N+](=O)[O-])nc1O2)N1CCN(Cc2ccc(C(F)(F)F)cc2)CC1  195 to 197 °C (dec.)
 4  CC(C)(C)OC(=O)N(CCc1ccc(C(F)(F)F)cc1)C1CCN(C[C@@]2(C)Cn3cc([N+](=O)[O-])nc3O2)CC1     206.8 to 208.6 °C
 5  C[C@]1(CN2CCN(N=Cc3cc4cc(C(F)(F)F)ccc4o3)CC2)Cn2cc([N+](=O)[O-])nc2O1     190.2 to 191.8 °C
 6  CN(C[C@@]1(C)Cn2cc([N+](=O)[O-])nc2O1)c1ccc(Cl)cc1         174 to 175 °C
 7  CC1(CN2CCC(Cc3ccc(OC(F)(F)F)cc3)CC2)Cn2cc([N+](=O)[O-])nc2O1 (stereo not drawn)       143.5 to 145 °C
 8  CC1(CN2CCN(C(=O)OCC#Cc3ccc(C(F)(F)F)cc3)CC2)Cn2cc([N+](=O)[O-])nc2O1.O=C(O)/C=C\C(=O)O (stereo not drawn)         166 °C (dec.)
 9  C[C@]1(CN2CCN(C3CCN(CC=Cc4ccc(OC(F)(F)F)cc4)CC3)CC2)Cn2cc([N+](=O)[O-])nc2O1         157 to 158 °C
10  C[C@]1(COC(=O)N2CCc3cc(Cl)ccc3C2)Cn2cc([N+](=O)[O-])nc2O1         180 to 182 °C
11  C[C@]1(COc2cccc(N3CCN(C(=O)OCc4ccc(OC(F)(F)F)cc4)CC3)c2)Cn2cc([N+](=O)[O-])nc2O1       136.5 to 138 °C
12        C[C@]1(CO)Cn2cc([N+](=O)[O-])nc2O1         162 to 163 °C
13  C[C@]1(CN2CCN(C(=O)CCCc3ccc(C(F)(F)F)cc3)CC2)Cn2cc([N+](=O)[O-])nc2O1         145 to 146 °C
14  C[C@]1(COC(=O)N2CCC(Oc3ccc(C(F)(F)F)cc3)CC2)Cn2cc([N+](=O)[O-])nc2O1         165 to 166 °C
15  CC1(Cn2ccnc2)Cn2cc([N+](=O)[O-])nc2O1 (stereo not drawn)     245.5 to 247.8 °C
16  C[C@]1(COC(=O)N2CCc3cc(Cl)ccc32)Cn2cc([N+](=O)[O-])nc2O1         189 to 191 °C
17  CC1(CN2CCN(C(=O)OCc3ccccc3)CC2)Cn2cc([N+](=O)[O-])nc2O1.Cl (stereo not drawn)     130.5 to 132.1 °C
18  Cc1ccc(CC(=O)N2CCN(CC3(C)Cn4cc([N+](=O)[O-])nc4O3)CC2)cc1 (stereo not drawn)         213 to 214 °C
19  C[C@]1(CN2CCN(C(=O)CSc3ccc(Cl)cc3)CC2)Cn2cc([N+](=O)[O-])nc2O1         142 to 145 °C
20  CC1(CSc2nc3ccccc3o2)Cn2cc([N+](=O)[O-])nc2O1 (stereo not drawn)         163 to 166 °C
21  CC1(CCN2CCN(c3ccccc3)C(=O)C2)Cn2cc([N+](=O)[O-])nc2O1 (stereo not drawn)  199 to 202 °C (dec.)
22  CCOC(=O)N1CCN(C(=O)c2ccc(OC[C@@]3(C)Cn4cc([N+](=O)[O-])nc4O3)cc2)CC1         132 to 135 °C
23  CNC(=O)OC[C@@]1(C)Cn2cc([N+](=O)[O-])nc2O1         175 to 178 °C
24  CC1(CN2CCN(c3ccc(-c4ccccc4)cc3)CC2)Cn2cc([N+](=O)[O-])nc2O1 (stereo not drawn)       223 to 227.8 °C
25  CC1(CCc2nnnn2-c2ccccc2)Cn2cc([N+](=O)[O-])nc2O1 (stereo not drawn)         158 to 159 °C
26  C[C@]1(CN2CCC([S+]([O-])c3ccc(OC(F)(F)F)cc3)CC2)Cn2cc([N+](=O)[O-])nc2O1 (stereo partly drawn)         107 to 109 °C
27  CC1(CNC(=O)OCc2ccc(OC(F)(F)F)cc2)Cn2cc([N+](=O)[O-])nc2O1 (stereo not drawn)     182.3 to 184.4 °C
28  C[C@]1(CN2CCC(NC(=O)OCc3ccc(C(F)(F)F)cc3)CC2)Cn2cc([N+](=O)[O-])nc2O1       141.2 to 144 °C
29  CN(CCOc1ccc(Cl)cc1)C[C@@]1(C)Cn2cc([N+](=O)[O-])nc2O1       130.5 to 132 °C
30  CC1(COCc2ccc(Oc3ccc(OC(F)(F)F)cc3)cc2)Cn2cc([N+](=O)[O-])nc2O1 (stereo not drawn)     107.9 to 109.3 °C
31  CC(C)(C)OC(=O)N1CCC(n2c(=O)n(CC3(C)Cn4cc([N+](=O)[O-])nc4O3)c3ccccc32)CC1 (stereo not drawn)       218 to 219.1 °C
32  CC1(CN2CCN(C(=O)c3cccc(C(F)(F)F)c3)CC2)Cn2cc([N+](=O)[O-])nc2O1 (stereo not drawn)         122 to 124 °C
33  CC1(COc2ccc(N3CCC(Oc4ccc(Cl)cc4)CC3)cc2)Cn2cc([N+](=O)[O-])nc2O1 (stereo not drawn)       151 to 152.3 °C
34  CC1(COc2ccc(OC(F)(F)F)cc2)Cn2cc([N+](=O)[O-])nc2O1 (stereo not drawn)     126.8 to 127.9 °C
35  COc1ccc(CN(C)C[C@@]2(C)Cn3cc([N+](=O)[O-])nc3O2)cc1         144 to 147 °C
